Biological target: human D2 receptor (Homo sapiens)
Construct: membrane preparation
Test: Radioligand binding to cloned human D2 receptor expressed in HEK-293 EBNA cells ([3H]-spiperone)
Settings: HEK293 EBNA cell membranes, approximately 0.7 nM [3H]-spiperone, 1 h at RT
Readout: pKi
Entry type: numeric. Quantity: pKi, the -log10 of concentration in molar units.

The measured pKi associated with CCCCC(=O)N[C@H]1CC[C@H](CCN2CCN(c3nccc4c3OCC4)CC2)CC1 reads 6.14

The measured pKi associated with O=C(N[C@H]1CC[C@H](CCN2CCN(c3nccc4c3OCC4)CC2)CC1)c1ccc(-c2cccnc2)cc1 reads 6.57

----------
Target: human D2 receptor (Homo sapiens)
Construct: membrane preparation
Experiment: Radioligand binding to cloned human D2 receptor expressed in HEK-293 EBNA cells ([3H]-spiperone)
Settings: HEK293 EBNA cell membranes, approximately 0.7 nM [3H]-spiperone, 1 h at RT
Readout: Ki (nM)
Express your answer in nM, writing the number without its unit.

# annotated cases, reported Ki shown
O=C(Cc1noc2ccccc12)N[C@H]1CC[C@H](CCN2CCN(c3nccc4c3OCC4)CC2)CC1	628
CC(C)(C)Oc1ccc(C(=O)N[C@H]2CC[C@H](CCN3CCN(c4nccc5c4OCC5)CC3)CC2)cc1	814
COCC(=O)N[C@H]1CC[C@H](CCN2CCN(c3nccc4c3OCC4)CC2)CC1	1280
CCC(=O)N[C@H]1CC[C@H](CCN2CCN(c3nccc4ccoc34)CC2)CC1	502
O=C(CC1CCOCC1)N[C@H]1CC[C@H](CCN2CCN(c3nccc4ccoc34)CC2)CC1	1150

The measured Ki associated with CC(C)=CC(=O)N[C@H]1CC[C@H](CCN2CCN(c3nccc4c3OCC4)CC2)CC1 reads 201

The measured Ki associated with O=C(N[C@H]1CC[C@H](CCN2CCN(c3nccc4c3OCC4)CC2)CC1)c1cnc(N2CCOCC2)cn1 reads 670

The measured Ki associated with CC(C)CCC(=O)N[C@H]1CC[C@H](CCN2CCN(c3nccc4c3OCC4)CC2)CC1 reads 879

----------
Target: human 5-HT2A receptor (Homo sapiens, UniProt P28223)
Sequence (P28223 whole entry): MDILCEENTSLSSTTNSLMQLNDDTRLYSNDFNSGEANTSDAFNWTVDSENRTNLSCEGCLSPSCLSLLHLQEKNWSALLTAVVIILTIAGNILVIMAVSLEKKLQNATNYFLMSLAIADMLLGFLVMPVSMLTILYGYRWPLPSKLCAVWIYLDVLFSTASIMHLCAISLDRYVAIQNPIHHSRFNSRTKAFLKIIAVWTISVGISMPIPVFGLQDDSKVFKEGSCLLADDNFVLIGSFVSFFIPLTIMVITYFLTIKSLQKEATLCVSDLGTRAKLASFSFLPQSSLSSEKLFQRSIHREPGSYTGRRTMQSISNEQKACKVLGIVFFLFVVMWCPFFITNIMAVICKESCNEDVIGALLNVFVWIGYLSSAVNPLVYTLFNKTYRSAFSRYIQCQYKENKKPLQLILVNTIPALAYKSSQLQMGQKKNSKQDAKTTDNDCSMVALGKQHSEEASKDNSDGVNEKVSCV
Test: Radioligand binding to cloned human 5-HT2A receptor expressed in HEK-293 EBNA cells ([3H]-ketanserin)
Readout: pKi
Entry type: numeric. Quantity: pKi, the -log10 of concentration in molar units.

O=C(C[C@@H](O)C(F)(F)F)N[C@H]1CC[C@H](CCN2CCN(c3nccc4c3OCC4)CC2)CC1 [Example 47]	7.05
CN1CCN(c2ccc(C(=O)N[C@H]3CC[C@H](CCN4CCN(c5nccc6c5OCC6)CC4)CC3)cc2)CC1 [Example 68]	8.31
O=C(N[C@H]1CC[C@H](CCN2CCN(c3nccc4c3OCC4)CC2)CC1)c1ccc(Cl)cc1Cl [Example 67]	7.03
COCC(=O)N[C@H]1CC[C@H](CCN2CCN(c3nccc4ccoc34)CC2)CC1 [Example 16]	8.00
O=C(CC1COC1)N[C@H]1CC[C@H](CCN2CCN(c3nccc4c3OCC4)CC2)CC1 [Example 98]	7.50
CC(C)(C)c1ccc(C(=O)N[C@H]2CC[C@H](CCN3CCN(c4nccc5c4OCC5)CC3)CC2)cc1 [Example 56]	7.17
O=C(N[C@H]1CC[C@H](CCN2CCN(c3nccc4c3OCC4)CC2)CC1)C1CCOCC1 [Example 7]	7.81

We now examine a further molecule.
The measured pKi associated with O=C(CC1COCCO1)N[C@H]1CC[C@H](CCN2CCN(c3nccc4ccoc34)CC2)CC1 (mixture of isomers) [Example 15] reads 8.09

----------
Target: human D2 receptor (Homo sapiens, UniProt P14416)
Construct: membrane preparation
Sequence (P14416 whole entry): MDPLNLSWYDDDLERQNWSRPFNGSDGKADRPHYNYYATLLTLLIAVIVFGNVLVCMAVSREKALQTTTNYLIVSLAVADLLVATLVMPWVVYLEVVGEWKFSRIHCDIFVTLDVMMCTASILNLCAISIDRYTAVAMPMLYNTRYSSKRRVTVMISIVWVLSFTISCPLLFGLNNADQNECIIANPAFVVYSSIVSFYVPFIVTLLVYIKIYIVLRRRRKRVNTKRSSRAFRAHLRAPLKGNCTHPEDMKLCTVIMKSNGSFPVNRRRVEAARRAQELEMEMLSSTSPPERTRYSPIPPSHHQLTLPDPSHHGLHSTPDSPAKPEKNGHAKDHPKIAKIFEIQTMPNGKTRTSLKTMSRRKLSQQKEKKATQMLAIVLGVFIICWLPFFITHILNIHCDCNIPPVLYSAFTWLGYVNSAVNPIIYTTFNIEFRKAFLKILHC
Assay: Radioligand binding to cloned human D2 receptor expressed in HEK-293 EBNA cells ([3H]-spiperone)
Conditions: HEK293 EBNA cell membranes, approximately 0.7 nM [3H]-spiperone, 1 h at RT
pKi: −log10 of the molar value.
Quick rule: pKi of at least 6 means MET, below that means NOT MET.

Please review the entries below; each comes with its answer.
O=C(N[C@H]1CC[C@H](CCN2CCN(c3nccc4c3OCC4)CC2)CC1)C1(O)CCC1	MET
CN(C)C(=O)CCC(=O)N[C@H]1CC[C@H](CCN2CCN(c3nccc4c3OCC4)CC2)CC1	NOT MET
CC#CC(=O)N[C@H]1CC[C@H](CCN2CCN(c3nccc4c3OCC4)CC2)CC1	MET
O=C(N[C@H]1CC[C@H](CCN2CCN(c3nccc4c3OCC4)CC2)CC1)C1CC1(F)F (stereo partly shown)	MET
O=C(C[C@@H]1COCCO1)N[C@H]1CC[C@H](CCN2CCN(c3nccc4c3OCC4)CC2)CC1	MET
CS(=O)(=O)c1ccc(C(=O)N[C@H]2CC[C@H](CCN3CCN(c4nccc5c4OCC5)CC3)CC2)s1	MET
C[C@]1(O)CC[C@H](C(=O)N[C@H]2CC[C@H](CCN3CCN(c4nccc5c4OCC5)CC3)CC2)CC1	MET
CCS(=O)(=O)N[C@H]1CC[C@H](CCN2CCN(c3nccc4c3OCC4)CC2)CC1	MET
O=C(N[C@H]1CC[C@H](CCN2CCN(c3nccc4c3OCC4)CC2)CC1)C1CCCOC1 (mixture of isomers)	MET
CO[C@H]1CC[C@H](CC(=O)N[C@H]2CC[C@H](CCN3CCN(c4nccc5c4OCC5)CC3)CC2)CC1	NOT MET

**Query** Quick check, pKi >= 6? O=C(N[C@H]1CC[C@H](CCN2CCN(c3nccc4c3OCC4)CC2)CC1)c1ccc(Cl)cc1
**Result** NOT MET

**Query** Quick check, pKi >= 6? Cc1cc(CC(=O)N[C@H]2CC[C@H](CCN3CCN(c4nccc5c4OCC5)CC3)CC2)on1
**Result** NOT MET

**Query** Quick check, pKi >= 6? O=C(CC1COC1)N[C@H]1CC[C@H](CCN2CCN(c3nccc4c3OCC4)CC2)CC1
**Result** MET

**Query** Quick check, pKi >= 6? O=C(N[C@H]1CC[C@H](CCN2CCN(c3nccc4c3OCC4)CC2)CC1)c1ccc(N2CCS(=O)(=O)CC2)cc1
**Result** MET

**Query** Quick check, pKi >= 6? O=C(N[C@H]1CC[C@H](CCN2CCN(c3nccc4ccoc34)CC2)CC1)C1CCOCC1
**Result** MET

**Query** Quick check, pKi >= 6? O=C(N[C@H]1CC[C@H](CCN2CCN(c3nccc4c3OCC4)CC2)CC1)c1ccc(F)cc1
**Result** NOT MET

**Query** Quick check, pKi >= 6? O=S(=O)(N[C@H]1CC[C@H](CCN2CCN(c3nccc4c3OCC4)CC2)CC1)c1ccccc1
**Result** MET

**Query** Quick check, pKi >= 6? CN(C)C(=O)N[C@H]1CC[C@H](CCN2CCN(c3nccc4c3OCC4)CC2)CC1
**Result** MET

**Query** Quick check, pKi >= 6? CCC(=O)N[C@H]1CC[C@H](CCN2CCN(c3nccc4c3OCC4)CC2)CC1
**Result** MET

**Query** Quick check, pKi >= 6? COC(C)CC(=O)N[C@H]1CC[C@H](CCN2CCN(c3nccc4c3OCC4)CC2)CC1 (mixture of isomers)
**Result** MET

----------
Quick reference for pKi among some compounds
Target: human D2 receptor (Homo sapiens, UniProt P14416)
Construct: membrane preparation
Assay: Radioligand binding to cloned human D2 receptor expressed in HEK-293 EBNA cells ([3H]-spiperone)
Settings: HEK293 EBNA cell membranes, approximately 0.7 nM [3H]-spiperone, 1 h at RT
Entry type: numeric. Quantity: pKi, the -log10 of concentration in molar units.

# annotated cases, reported pKi shown
CO[C@H]1CC[C@H](CC(=O)N[C@H]2CC[C@H](CCN3CCN(c4nccc5c4OCC5)CC3)CC2)C1 [Example 52]	6.02
CO[C@@H]1CC[C@@H](CC(=O)N[C@H]2CC[C@H](CCN3CCN(c4nccc5ccsc45)CC3)CC2)C1 (racemic) [Example 5]	6.36
CC(C)(C)CC(=O)N[C@H]1CC[C@H](CCN2CCN(c3nccc4c3OCC4)CC2)CC1 [Example 89]	6.36
O=C(CC(F)(F)F)N[C@H]1CC[C@H](CCN2CCN(c3nccc4c3OCC4)CC2)CC1 [Example 33]	6.56

We now examine a further compound.
The measured pKi associated with CC(C)(C)c1ccc(C(=O)N[C@H]2CC[C@H](CCN3CCN(c4nccc5c4OCC5)CC3)CC2)cc1 [Example 56] reads 5.71

----------
Target: human 5-HT2A receptor (Homo sapiens, UniProt P28223)
Quick reference for pKi among some compounds
Entry type: numeric. Quantity: pKi, the -log10 of concentration in molar units.

# annotated cases, reported pKi shown
CC(C)C(=O)N[C@H]1CC[C@H](CCN2CCN(c3nccc4c3OCC4)CC2)CC1	7.46
O=C(C[C@@H]1COCCO1)N[C@H]1CC[C@H](CCN2CCN(c3nccc4c3OCC4)CC2)CC1	7.44

Noted pKi for O=C(Cc1ccc2c(c1)OCO2)N[C@H]1CC[C@H](CCN2CCN(c3nccc4c3OCC4)CC2)CC1 , tested on human 5-HT2A receptor (Homo sapiens, UniProt P28223): 7.31
